Target: ΔN-heimProfilin (Candidatus Heimdallarchaeota archaeon LC_3)
Experiment: ITC; profilin in the cell (approx. 0.1-0.5 mM), 20 injections of 1.0-14 mM polyproline (VASP); 50 mM Na3PO4 pH 7.5, 50 mM NaCl; 25 °C; triplicates

[
  {
    "BINDER": "GAGGGPPPAPPLPAAQ [polyproline motif of VASP (…)]",
    "Kd / µM": 300
  }
]

Attribution: paper PMC8410842
